For each entry below, report its inhibition at 48 h, 10 ug/ml value.
test: Cytotoxicity against human A549 cells assessed as growth inhibition at 10 ug/ml after 48 hrs by MTT assay relative to control; assay type: cell-based; conditions: read-out: GI
Lab book: enter the figure in %, no units written.

Exam item: Consider the molecule CN1C/C(=C\c2cc3ccccc3nc2Cl)C(=O)/C(=C/c2cc3ccccc3nc2Cl)C1 . State its measured inhibition at 48 h, 10 ug/ml.
Marked response: 0

Exam item: Consider the molecule CN1C/C(=C\c2cc3cc(Cl)ccc3nc2Cl)C(=O)/C(=C/c2cc3cc(Cl)ccc3nc2Cl)C1 . State its measured inhibition at 48 h, 10 ug/ml.
Marked response: 48.9

Exam item: Consider the molecule CN1C/C(=C\c2cc3cc(F)ccc3nc2Cl)C(=O)/C(=C/c2cc3cc(F)ccc3nc2Cl)C1 . State its measured inhibition at 48 h, 10 ug/ml.
Marked response: 0

Exam item: Consider the molecule Cc1cccc2cc(/C=C3\CNC/C(=C\c4cc5cccc(C)c5nc4Cl)C3=O)c(Cl)nc12 . State its measured inhibition at 48 h, 10 ug/ml.
Marked response: 0

Exam item: Consider the molecule O=C1/C(=C/c2cc3cc(F)ccc3nc2Cl)CNC/C1=C\c1cc2cc(F)ccc2nc1Cl . State its measured inhibition at 48 h, 10 ug/ml.
Marked response: 0

Exam item: Consider the molecule O=C1/C(=C/c2cc3ccccc3nc2Cl)CNC/C1=C\c1cc2ccccc2nc1Cl . State its measured inhibition at 48 h, 10 ug/ml.
Marked response: 0

Exam item: Consider the molecule COc1ccc2cc(/C=C3\CNC/C(=C\c4cc5ccc(OC)cc5nc4Cl)C3=O)c(Cl)nc2c1 . State its measured inhibition at 48 h, 10 ug/ml.
Marked response: 29.8

Exam item: Consider the molecule Cc1cccc2cc(/C=C3\CN(C)C/C(=C\c4cc5cccc(C)c5nc4Cl)C3=O)c(Cl)nc12 . State its measured inhibition at 48 h, 10 ug/ml.
Marked response: 0

Exam item: Consider the molecule O=C1/C(=C/c2cc3cc(Cl)ccc3nc2Cl)CNC/C1=C\c1cc2cc(Cl)ccc2nc1Cl . State its measured inhibition at 48 h, 10 ug/ml.
Marked response: 0

Exam item: Consider the molecule Cc1ccc2cc(/C=C3\CN(C)C/C(=C\c4cc5ccc(C)cc5nc4Cl)C3=O)c(Cl)nc2c1 . State its measured inhibition at 48 h, 10 ug/ml.
Marked response: 34.6

Exam item: Consider the molecule Cc1ccc2cc(/C=C3\CNC/C(=C\c4cc5ccc(C)cc5nc4Cl)C3=O)c(Cl)nc2c1 . State its measured inhibition at 48 h, 10 ug/ml.
Marked response: -16.9

Exam item: Consider the molecule COc1ccc2nc(Cl)c(/C=C3\CN(C)C/C(=C\c4cc5cc(OC)ccc5nc4Cl)C3=O)cc2c1 . State its measured inhibition at 48 h, 10 ug/ml.
Marked response: 0

Exam item: Consider the molecule COc1ccc2nc(Cl)c(/C=C3\CNC/C(=C\c4cc5cc(OC)ccc5nc4Cl)C3=O)cc2c1 . State its measured inhibition at 48 h, 10 ug/ml.
Marked response: 0

Exam item: Consider the molecule Cc1ccc2nc(Cl)c(/C=C3\CNC/C(=C\c4cc5cc(C)ccc5nc4Cl)C3=O)cc2c1 . State its measured inhibition at 48 h, 10 ug/ml.
Marked response: 0

Exam item: Consider the molecule COc1ccc2cc(/C=C3\CN(C)C/C(=C\c4cc5ccc(OC)cc5nc4Cl)C3=O)c(Cl)nc2c1 . State its measured inhibition at 48 h, 10 ug/ml.
Marked response: 0

Exam item: Consider the molecule Cc1ccc2nc(Cl)c(/C=C3\CN(C)C/C(=C\c4cc5cc(C)ccc5nc4Cl)C3=O)cc2c1 . State its measured inhibition at 48 h, 10 ug/ml.
Marked response: 0

Hey, just so you know, these numbers are from ChEMBL document CHEMBL4002627.
